Attribution: ChEMBL document CHEMBL3507680

Measured cytotoxicity at 70.5 h accompanies every entry in the list below.
# assay method text: Human HepG2 cell viability assay in 384 well format
# Assay type: toxicity, cell-based
# Parameters: dose 125 nL, time 70.5 hour; concentration not given beside the values
# conditions: HepG2 cells, read-out: Inhibition
Just the number please, in %, no unit attached.

[
  {
    "molecule": "Cc1ccc(N2CCCC(N3CCC4(CC3)OCCO4)C2=O)cc1 (centres undefined)",
    "cytotoxicity at 70.5 h [%]": -7.88
  },
  {
    "molecule": "COc1c(Br)cccc1CCNC(=O)c1csnn1",
    "cytotoxicity at 70.5 h [%]": -11.9
  },
  {
    "molecule": "COCCN1C[C@H]2CC[C@@H]1CN(Cc1ccc3ccccc3n1)C2",
    "cytotoxicity at 70.5 h [%]": -5.95
  }
]

Name the recorded cytotoxicity at 70.5 h for `Cc1ncc2c(c1CNC(=O)C1(C)CC1)CCNC2` .
-7.68

What do we get for `CCCN1CCC(NC(=O)c2ccnc(SCC)c2)CC1` ?
-0.521

Request: Cc1cnn(CC(C)NCc2cccc(C#N)c2)c1 (centres undefined)
2.17

Thanks! And CN1CC2(CCCN(CCOCc3ccccc3)C2)OC1=O (centres undefined) ?
-3.02

Subsequent entry: Cc1nc(C)n(CC2CCCN(Cc3ccccc3C#N)C2)n1 (centres undefined)
22.8

Cool, now Cc1ccc(CNC(=O)N2CCc3ccccc3C2CO)s1 (centres undefined)
-5.32

Try Cc1cccc(C(=O)N2CCCC(c3nccn3Cc3cscn3)C2)n1 (centres undefined) next.
-5.05

Record: Cc1cc(C)cc(OCCN(C)C(=O)NC(C)c2nncn2C)c1 (centres undefined)
17.7

Also check CCC(O)CN1CCN(C(=O)c2sccc2C2CC2)CC1 (centres undefined)
-2.13
